Source of measurements: PubChem BioAssay (NCI)

Tested on: BT-549 breast
Test: NCI-60 one-dose screen, 48 h
Details: 10 µM unless noted
The panel holds about 83,000 compounds, 20% with a hit somewhere; the sample as a whole holds those more often. Activity calls are given as the source filed them. How the source made its calls: active means growth percent below 10; inactive means the rest.
Hi! Could you answer with just one of these? TRUE (active), FALSE (inactive)

{"compound": "CCCCCCCCO/N=C\\c1c2c(O)c3c(O)c(C)c4c(c3c1O)C(=O)C(C)(O/C=C\\C(OC)C(C)C(OC(C)=O)C(C)C(O)C(C)C(O)C(C)/C=C\\C=C(\\C)C(=O)N2)O4 (stereo not given)", "tested.target": "BT-549 breast", "label.value": "FALSE"}
{"compound": "COc1cc(/C=C\\c2cc(/C=C\\c3ccc(O)c(OC)c3)n(C(=O)COc3ccccc3)n2)ccc1O", "tested.target": "BT-549 breast", "label.value": "TRUE"}
{"compound": "O=C(CCN1CCCC1)Nc1ccc2c(NCCCCc3ccccc3)c3ccccc3nc2c1", "tested.target": "BT-549 breast", "label.value": "FALSE"}
{"compound": "C=C1C(=O)O[C@H]2[C@H]1CC/C(C(=O)NCCCCCNC(=O)/C1=C/CC[C@@]3(C)O[C@H]3[C@H]3OC(=O)C(=C)[C@@H]3CC1)=C\\CC[C@@]1(C)O[C@@H]21", "tested.target": "BT-549 breast", "label.value": "FALSE"}
{"compound": "N#C/C(=C\\c1ccc(Cl)cc1)n1nnc2cc(F)c(F)cc21", "tested.target": "BT-549 breast", "label.value": "FALSE"}
{"compound": "NCCCCCCNc1cc(-c2cccc(OC(F)(F)F)c2)nc2ccc(N3CCCC3)cc12", "tested.target": "BT-549 breast", "label.value": "FALSE"}
{"compound": "CCOC(=O)c1ccc2c(c1)ncn2-c1ccc(NC(=O)Nc2cccc(C)c2)cc1", "tested.target": "BT-549 breast", "label.value": "FALSE"}
{"compound": "C=CCN1C(=O)/C(=C/C(=O)OC)S/C1=N\\NC(=O)c1cc2ccc1/C=C\\c1ccc(cc1)/C=C\\2", "tested.target": "BT-549 breast", "label.value": "FALSE"}

How was `Cc1cc2nc3c4cc(C=O)ccc4n(CCN(C)C)c3nc2cc1C` classified in this test?
FALSE

How was `COc1cc(NCCCCCNC(C)(C)C)c2ncccc2c1` classified in this test?
FALSE

How was `O=C(CCN1CCCC1)Nc1ccc2c(Nc3ccc(Br)cc3)c3ccccc3nc2c1` classified in this test?
FALSE

How was `COc1cccc(-c2nc3occn3c2-c2ccnc(NCCCNS(=O)(=O)c3ccc(C(F)(F)F)cc3)n2)c1` classified in this test?
FALSE

How was `CCOc1cccc(-c2nc(N)nc(Nc3ccccc3SSc3ccccc3Nc3nc(N)nc(-c4cccc(OCC)c4)n3)n2)c1` classified in this test?
FALSE

How was `Cc1nnc2c(Cc3ccccc3)nc3ccccc3n12` classified in this test?
FALSE

How was `Cc1cnc(C(=O)Nc2nc3ccc(S(=O)(=O)Nc4ccc(C5(C(F)(F)F)CC5)cc4)cc3[nH]2)cn1` classified in this test?
FALSE

How was `C[C@H]1[C@H](C)CC[C@]2(C(=O)Nc3ccc4ncccc4c3)CC[C@]3(C)C(=CC[C@@H]4[C@@]5(C)CCCNC(C)(C)[C@@H]5CC[C@]43C)[C@H]12` classified in this test?
FALSE
